These entries and their values trace back to patent US10258603B2.

study-target: CECR2 (Homo sapiens, UniProt Q9BXF3)
Construct: 424-538 was cloned, expressed, and purified to homogeneity; Flag; made in house
Sequence (Q9BXF3 424-538 limits assumed): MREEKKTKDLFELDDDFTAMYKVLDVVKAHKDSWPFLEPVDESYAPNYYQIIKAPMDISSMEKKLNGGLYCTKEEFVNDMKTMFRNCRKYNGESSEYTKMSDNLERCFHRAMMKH
test-description: CECR2 TR-FRET Binding Assay
condition-context: read-out: IC50
pIC50: −log10 of the molar value.
recorded-metric: pIC50

smiles-notation: CN(C)C(=O)C1CCN(C(=O)c2cn(C)c(=O)c3[nH]ccc23)CC1
recorded-metric: pIC50
observed-result: 5.23
--
smiles-notation: CN(C(=O)c1cn(C)c(=O)c2[nH]ccc12)C1CCN(c2cnccn2)CC1
recorded-metric: pIC50
observed-result: 6.40
--
smiles-notation: CC(C)CN1CCC(N(C)C(=O)c2cn(C)c(=O)c3[nH]ccc23)CC1
recorded-metric: pIC50
observed-result: 6.09
--
smiles-notation: CN1CCC(C)(CNC(=O)c2cn(C)c(=O)c3[nH]ccc23)CC1
recorded-metric: pIC50
observed-result: 5.66
--
smiles-notation: CN1CCC(CCN(C)C(=O)c2cn(C)c(=O)c3[nH]ccc23)CC1
recorded-metric: pIC50
observed-result: 6.14

====

study-target: CECR2 (Homo sapiens, UniProt Q9BXF3)
Construct: 424-538 was cloned, expressed, and purified to homogeneity; Flag; made in house
test-description: CECR2 TR-FRET Binding Assay
condition-context: IC50 (uM)
With a cut-off of 0.2 µM, any IC50 strictly below it is called t; any IC50 meeting it or above is called f.

compound: CC(C)N1CCC(N(C)C(=O)c2cn(C)c(=O)c3[nH]ccc23)CC1 [Example 41]
label-class: f

compound: C=CCn1cc(C(=O)N(C)C2CCN(c3cc(-n4cccn4)ncn3)CC2)c2cc[nH]c2c1=O [Example 170]
label-class: t

compound: C=CCn1cc(C(=O)N(C)C2CCN(c3cc(OC)ncn3)CC2)c2cc[nH]c2c1=O [Example 162]
label-class: t

compound: CC(c1ccccc1)N1CCC(N(C)C(=O)c2cn(C)c(=O)c3[nH]ccc23)CC1 (stereo not drawn) [Example 214]
label-class: f

compound: C=CCn1cc(C(=O)N(C)C2CCN(c3cc(C(F)(F)F)ncn3)CC2)c2cc[nH]c2c1=O [Example 164]
label-class: f

compound: C=CCn1cc(C(=O)N(C)C2CCN(c3cc(C)nc(C)n3)CC2)c2cc[nH]c2c1=O [Example 165]
label-class: t

====

study-target: TAF1-BD2 (Homo sapiens, UniProt P21675)
Sequence (P21675 1525-1656): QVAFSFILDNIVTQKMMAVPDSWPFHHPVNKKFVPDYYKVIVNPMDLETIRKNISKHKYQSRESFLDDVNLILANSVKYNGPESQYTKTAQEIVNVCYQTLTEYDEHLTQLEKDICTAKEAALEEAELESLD
test-description: TAF1-BD2 TR-FRET Binding Assay
condition-context: Assay: TAF-1
pIC50: −log10 of the molar value.
// reported pIC50 per item
recorded-metric: pIC50

molecule: COCCN1CCC(CN(C)C(=O)c2cn(C)c(=O)c3[nH]ccc23)CC1
study-target: TAF1-BD2 (Homo sapiens, UniProt P21675)
observed-result: 5.80

molecule: CN(CC1CCN(Cc2ccc(Cl)cc2)CC1)C(=O)c1cn(C)c(=O)c2[nH]ccc12
study-target: TAF1-BD2 (Homo sapiens, UniProt P21675)
observed-result: 5.10

molecule: CC=CCn1cc(C(=O)NCCNC(C)=O)c2cc[nH]c2c1=O
study-target: TAF1-BD2 (Homo sapiens, UniProt P21675)
observed-result: 5.43

molecule: CN(C)C1CCN(C(=O)c2cn(C)c(=O)c3[nH]ccc23)CC1
study-target: TAF1-BD2 (Homo sapiens, UniProt P21675)
observed-result: 7.16

molecule: Cn1cc(C(=O)NCCC2CCN(CC(F)(F)F)CC2)c2cc[nH]c2c1=O
study-target: TAF1-BD2 (Homo sapiens, UniProt P21675)
observed-result: 5.82

molecule: CC(C)c1ccc(N2CCC(N(C)C(=O)c3cn(C)c(=O)c4[nH]ccc34)CC2)cc1
study-target: TAF1-BD2 (Homo sapiens, UniProt P21675)
observed-result: 6.80

molecule: CC(C)N1CC[C@H](NC(=O)c2cn(C)c(=O)c3[nH]ccc23)[C@H](C)C1 (relative stereo)
study-target: TAF1-BD2 (Homo sapiens, UniProt P21675)
observed-result: 5.68

molecule: Cn1cc(C(=O)N2CCCCC2)c2cc[nH]c2c1=O
study-target: TAF1-BD2 (Homo sapiens, UniProt P21675)
observed-result: 5.19

molecule: CN(CC1CCN(CC2CCCCO2)CC1)C(=O)c1cn(C)c(=O)c2[nH]ccc12 (centres unmarked)
study-target: TAF1-BD2 (Homo sapiens, UniProt P21675)
observed-result: 5.00

molecule: Cn1cc(C(=O)N2CCC(N3CCOCC3)CC2)c2cc[nH]c2c1=O
study-target: TAF1-BD2 (Homo sapiens, UniProt P21675)
observed-result: 5.33

molecule: Cn1cc(C(=O)N2CCC(Cc3ccccn3)CC2)c2cc[nH]c2c1=O
study-target: TAF1-BD2 (Homo sapiens, UniProt P21675)
observed-result: 5.82

molecule: CC(CN1CCC(N(C)C(=O)c2cn(C)c(=O)c3[nH]ccc23)CC1)c1ccccc1 (centres unmarked)
study-target: TAF1-BD2 (Homo sapiens, UniProt P21675)
observed-result: 5.32

molecule: CC=CCn1cc(C(=O)NC(C)(C)C)c2cc[nH]c2c1=O
study-target: TAF1-BD2 (Homo sapiens, UniProt P21675)
observed-result: 6.01

molecule: Cn1cc(C(=O)NCC2CCN(C(=O)OC(C)(C)C)C2)c2cc[nH]c2c1=O (centres unmarked)
study-target: TAF1-BD2 (Homo sapiens, UniProt P21675)
observed-result: 6.29

molecule: Cn1cc(C(=O)NC2CCN(c3nccc(C(F)(F)F)n3)CC2)c2cc[nH]c2c1=O
study-target: TAF1-BD2 (Homo sapiens, UniProt P21675)
observed-result: 6.31

molecule: Cn1cc(C(=O)NC2CCN(c3cnccn3)CC2)c2cc[nH]c2c1=O
study-target: TAF1-BD2 (Homo sapiens, UniProt P21675)
observed-result: 6.26

molecule: Cn1cc(C(=O)NC2CCN(c3ccccc3)CC2)c2cc[nH]c2c1=O
study-target: TAF1-BD2 (Homo sapiens, UniProt P21675)
observed-result: 6.59

molecule: CN(CC1CCN(c2ncccn2)CC1)C(=O)c1cn(C)c(=O)c2[nH]ccc12
study-target: TAF1-BD2 (Homo sapiens, UniProt P21675)
observed-result: 5.80

molecule: CN(CC1CCN(CC2CCCO2)CC1)C(=O)c1cn(C)c(=O)c2[nH]ccc12 (centres unmarked)
study-target: TAF1-BD2 (Homo sapiens, UniProt P21675)
observed-result: 5.00

molecule: Cn1cc(C(=O)NC2CCN(c3ccncn3)CC2)c2cc[nH]c2c1=O
study-target: TAF1-BD2 (Homo sapiens, UniProt P21675)
observed-result: 6.36

molecule: CC(C)N1CC[C@@H](NC(=O)c2cn(C)c(=O)c3[nH]ccc23)[C@H](F)C1 (relative stereo)
study-target: TAF1-BD2 (Homo sapiens, UniProt P21675)
observed-result: 6.24

molecule: CC=CCn1cc(C(=O)NCC2CN(C(=O)OC(C)(C)C)C2)c2cc[nH]c2c1=O
study-target: TAF1-BD2 (Homo sapiens, UniProt P21675)
observed-result: 5.33

molecule: CN1CCC(C)(NC(=O)c2cn(C)c(=O)c3[nH]ccc23)CC1
study-target: TAF1-BD2 (Homo sapiens, UniProt P21675)
observed-result: 5.28

molecule: Cn1cc(C(=O)N2CCC(c3ccncn3)CC2)c2cc[nH]c2c1=O
study-target: TAF1-BD2 (Homo sapiens, UniProt P21675)
observed-result: 5.60

molecule: Cn1cc(C(=O)NC2CCN(C3CCCC3)CC2)c2cc[nH]c2c1=O
study-target: TAF1-BD2 (Homo sapiens, UniProt P21675)
observed-result: 6.14

molecule: Cn1cc(C(=O)NC2CCN(c3nccc(C#N)n3)CC2)c2cc[nH]c2c1=O
study-target: TAF1-BD2 (Homo sapiens, UniProt P21675)
observed-result: 6.00

molecule: Cn1cc(C(=O)NCC2CCCN(C(=O)OC(C)(C)C)C2)c2cc[nH]c2c1=O (centres unmarked)
study-target: TAF1-BD2 (Homo sapiens, UniProt P21675)
observed-result: 5.89

molecule: Cn1cc(C(=O)N2CCC(CCNS(C)(=O)=O)CC2)c2cc[nH]c2c1=O
study-target: TAF1-BD2 (Homo sapiens, UniProt P21675)
observed-result: 5.54

molecule: CN1CCC(NC(=O)c2cn(C)c(=O)c3[nH]ccc23)CC1
study-target: TAF1-BD2 (Homo sapiens, UniProt P21675)
observed-result: 6.49

molecule: CC(C)N1CC[C@H](NC(=O)c2cn(C)c(=O)c3[nH]ccc23)[C@H](F)C1 (relative stereo)
study-target: TAF1-BD2 (Homo sapiens, UniProt P21675)
observed-result: 5.47

molecule: Cn1cc(C(=O)NC2CCN(c3ncccn3)CC2)c2cc[nH]c2c1=O
study-target: TAF1-BD2 (Homo sapiens, UniProt P21675)
observed-result: 6.47

molecule: Cn1cc(C(=O)NC2CCN(c3ncc(F)cn3)CC2)c2cc[nH]c2c1=O
study-target: TAF1-BD2 (Homo sapiens, UniProt P21675)
observed-result: 6.28

molecule: Cc1ccnc(N2CCC(NC(=O)c3cn(C)c(=O)c4[nH]ccc34)CC2)n1
study-target: TAF1-BD2 (Homo sapiens, UniProt P21675)
observed-result: 6.44

molecule: CCN1CCC(CN(C)C(=O)c2cn(C)c(=O)c3[nH]ccc23)C1 (centres unmarked)
study-target: TAF1-BD2 (Homo sapiens, UniProt P21675)
observed-result: 5.16

molecule: Cn1cc(C(=O)N2CCC(C(C)(C)C)CC2)c2cc[nH]c2c1=O
study-target: TAF1-BD2 (Homo sapiens, UniProt P21675)
observed-result: 5.64
